molecular target: human full-length recombinant PKC βII (Homo sapiens); construct: Active human full-length recombinant PKC βII; purchased Invitrogen GmbH, Darmstadt, Germany; test: Determination of PKC βII inhibition (Caliper mobility shift kinase assay); type: biochemical; conditions: final compound concentration 1.14 μM (±0.15 μM); 60 min incubation at 32° C.
reported_metric: inhibition at 1.14 µM (%)

> print(dat)
                                   molecule  observed.result
1  CCC1(C)CN(Cc2cc(-c3ccc(O)cc3)nc3[nH]nc(C)c23)C(C)(C)CN1 (stereo not shown)               93
2  Cc1n[nH]c2nc(-c3ccc(O)cc3F)cc(CN3CC(C)(C)NC[C@]3(C)C3CC3)c12               87
3  Cc1n[nH]c2nc(-c3ccc(O)cc3)cc(CN3CC(C)NCC3(C)C)c12 (stereo not shown)               99
4  Cc1n[nH]c2nc(-c3ccc(O)cc3F)cc(CN3CC(C)(C)N(CCC4CCOCC4)CC3(C)C)c12              101

---

molecular target: human full-length recombinant PKC βII (Homo sapiens, UniProt P05771); construct: Active human full-length recombinant PKC βII; purchased Invitrogen GmbH, Darmstadt, Germany; assay: Determination of PKC βII inhibition (Caliper mobility shift kinase assay); format: biochemical; conditions: final compound concentration 1.14 μM (±0.15 μM); 60 min incubation at 32° C.
Sequence (P05771 1-673 isoform P05771-2): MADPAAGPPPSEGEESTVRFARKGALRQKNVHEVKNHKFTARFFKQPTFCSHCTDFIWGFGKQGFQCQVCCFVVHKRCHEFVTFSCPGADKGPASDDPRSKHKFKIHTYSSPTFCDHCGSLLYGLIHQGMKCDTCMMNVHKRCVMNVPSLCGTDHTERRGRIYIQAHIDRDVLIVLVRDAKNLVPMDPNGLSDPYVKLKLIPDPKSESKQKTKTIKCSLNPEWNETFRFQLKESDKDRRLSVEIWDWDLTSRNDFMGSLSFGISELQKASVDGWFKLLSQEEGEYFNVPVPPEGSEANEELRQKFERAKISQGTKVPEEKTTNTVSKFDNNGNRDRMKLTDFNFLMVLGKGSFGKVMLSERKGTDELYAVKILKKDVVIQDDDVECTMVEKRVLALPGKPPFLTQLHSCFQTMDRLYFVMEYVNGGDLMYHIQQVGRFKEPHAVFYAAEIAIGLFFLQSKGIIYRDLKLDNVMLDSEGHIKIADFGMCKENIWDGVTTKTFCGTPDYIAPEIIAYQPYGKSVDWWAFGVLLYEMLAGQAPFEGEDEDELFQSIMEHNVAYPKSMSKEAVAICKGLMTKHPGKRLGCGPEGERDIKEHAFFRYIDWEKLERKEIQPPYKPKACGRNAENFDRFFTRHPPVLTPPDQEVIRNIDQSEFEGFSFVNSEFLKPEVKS
reported_metric: inhibition at 1.14 µM (%)

> print(dat)
                                   compound                             system.tested  reading.unit  observed.result
1  Cc1n[nH]c2nc(-c3ccc(O)cc3F)cc(CN3C[C@@H](C)NCC3(C)C)c12  human full-length recombinant PKC βII (Homo sapiens, UniProt P05771)             %               95
2  CCC1(C)CNC(C)(C)CN1Cc1cc(-c2ccc(O)cc2)nc2[nH]nc(C)c12 (centres unmarked)  human full-length recombinant PKC βII (Homo sapiens, UniProt P05771)             %               96
3  Cc1n[nH]c2nc(-c3ccc(O)cc3F)cc(CN3CCNC[C@]3(C)c3ccccc3)c12  human full-length recombinant PKC βII (Homo sapiens, UniProt P05771)             %               99
4  CNCCN1CC(C)(C)N(Cc2cc(-c3ccc(O)cc3)nc3[nH]nc(C)c23)CC1(C)C  human full-length recombinant PKC βII (Homo sapiens, UniProt P05771)             %              101
5  Cc1n[nH]c2nc(-c3ccc(O)cc3)cc(CN3C[C@@H](C)NC[C@@H]3C)c12  human full-length recombinant PKC βII (Homo sapiens, UniProt P05771)             %               98
6  COCC(=O)N1CC(C)N(Cc2cc(-c3ccc(O)cc3)nc3[nH]nc(C)c23)CC12CCCC2 (centres unmarked)  human full-length recombinant PKC βII (Homo sapiens, UniProt P05771)             %               85
7  Cc1n[nH]c2nc(-c3ccc(O)cc3)cc(CN3C[C@H](C)NCC3(C)C)c12  human full-length recombinant PKC βII (Homo sapiens, UniProt P05771)             %              103
8  Cc1n[nH]c2nc(-c3ccc(O)cc3)cc(CN3CC(C)N(Cc4cccnc4)CC3(C)C)c12 (centres unmarked)  human full-length recombinant PKC βII (Homo sapiens, UniProt P05771)             %               84
